B1: TPR t1 (parent)
chain: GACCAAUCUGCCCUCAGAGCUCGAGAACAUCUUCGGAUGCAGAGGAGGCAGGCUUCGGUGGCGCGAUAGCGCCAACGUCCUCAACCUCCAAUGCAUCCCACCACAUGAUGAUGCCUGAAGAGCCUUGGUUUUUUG

variants of: B1; test: polymerase ribozyme fitness, log enrichment relative to wild type (log ratio); higher = more active; in vitro selection for triplet polymerase activity
Lab note: compare polymerase ribozyme fitness (log ratio) against -2. Equal or greater, write TRUE. Smaller, write FALSE.

Below are worked cases with known answers.
> print(dat)
            mutation.list  discrete.label
1   C62U A84C G117C C124A           FALSE
2  C70U A111C U116G A121C           FALSE
3          C28U G52C C56G           FALSE

Reported polymerase ribozyme fitness (log ratio) at or above -2? G39U C73U G77A
TRUE

Reported polymerase ribozyme fitness (log ratio) at or above -2? C76A
TRUE

Reported polymerase ribozyme fitness (log ratio) at or above -2? U81A C86G
TRUE

Reported polymerase ribozyme fitness (log ratio) at or above -2? C13U A50U C88G U112A G117A
FALSE

Reported polymerase ribozyme fitness (log ratio) at or above -2? A27U G48U A50U C123U
FALSE

Values were extracted from the RNAGym collection of RNA variant scans (doi:10.1073/pnas.2313332121).
